EXPERIMENTAL SYSTEM: SUV39H2 (Homo sapiens (Human))
Sequence (Q9H5I1 whole entry): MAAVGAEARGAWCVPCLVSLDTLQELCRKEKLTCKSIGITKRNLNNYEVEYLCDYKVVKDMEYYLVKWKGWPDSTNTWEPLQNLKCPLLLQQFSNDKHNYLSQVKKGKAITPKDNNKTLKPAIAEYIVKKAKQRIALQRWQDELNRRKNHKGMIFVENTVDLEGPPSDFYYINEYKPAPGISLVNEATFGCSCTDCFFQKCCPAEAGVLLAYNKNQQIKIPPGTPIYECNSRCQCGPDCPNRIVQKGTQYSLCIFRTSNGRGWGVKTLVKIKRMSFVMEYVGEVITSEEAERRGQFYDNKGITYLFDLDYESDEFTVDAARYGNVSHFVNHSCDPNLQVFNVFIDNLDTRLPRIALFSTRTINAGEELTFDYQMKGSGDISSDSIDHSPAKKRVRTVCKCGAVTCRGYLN
SETTINGS: read-out: IC50 (μM) Suv 39H2 assay; enzyme assay
Counter-ions that a name gives are not always drawn.

{"columns": ["COMPOUND", "EXPERIMENTAL SYSTEM", "VALUE UNIT", "IC50"],
 "data": [
  ["COc1cc(OC)c(-c2cn3ccc(N4CCC(NS(=O)(=O)C(F)(F)F)CC4)cc3n2)cc1Cl [Example 176]", "SUV39H2 (Homo sapiens (Human))", "µM", 0.0641],
  ["COc1cc(OC)c(-c2cn3ccc(N4CCC[C@@H](N)C4)cc3n2)cc1Cl [Example 30, dihydrochloride]", "SUV39H2 (Homo sapiens (Human))", "µM", 0.009],
  ["CNc1ccn2cc(-c3cc(Br)c(OC)cc3OC)nc2c1 [Example 11, hydrobromide]", "SUV39H2 (Homo sapiens (Human))", "µM", 0.0094],
  ["COc1cc(OC)c(-c2cn3ccc(N4CCCC4)nc3n2)cc1Cl [Example 9, hydrobromide]", "SUV39H2 (Homo sapiens (Human))", "µM", 0.00608]
]}
